# SYSTEM UNDER TEST: D(1A) dopamine receptor (Homo sapiens); further: assay procedure not described here
# Sequence (P21728 whole entry): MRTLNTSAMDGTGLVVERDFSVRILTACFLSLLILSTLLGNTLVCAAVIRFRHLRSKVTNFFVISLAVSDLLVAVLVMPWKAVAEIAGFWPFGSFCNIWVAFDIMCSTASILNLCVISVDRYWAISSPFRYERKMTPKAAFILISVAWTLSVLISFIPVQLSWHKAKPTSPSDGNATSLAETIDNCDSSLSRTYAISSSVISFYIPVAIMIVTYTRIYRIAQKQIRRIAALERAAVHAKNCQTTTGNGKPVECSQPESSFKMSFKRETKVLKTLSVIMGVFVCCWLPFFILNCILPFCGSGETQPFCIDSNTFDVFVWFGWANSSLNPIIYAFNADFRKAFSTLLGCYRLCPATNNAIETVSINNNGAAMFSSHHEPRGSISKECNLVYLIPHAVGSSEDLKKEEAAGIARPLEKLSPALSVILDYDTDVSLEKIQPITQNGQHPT
# Assay type: functional, cell-based
Entries annotated with measured AC50

// known answers, use as guide
MOLECULE | SYSTEM UNDER TEST | AC50
COC(=O)c1ccc2c(c1)NC(=O)/C2=C(\Nc1ccc(N(C)C(=O)CN2CCN(C)CC2)cc1)c1ccccc1 [NINTEDANIB] | D(1A) dopamine receptor (Homo sapiens) | > 30 µM
CC(=O)[C@@]1(O)CC[C@H]2[C@@H]3C[C@H](C)C4=CC(=O)C=C[C@]4(C)[C@@]3(F)[C@@H](O)C[C@@]21C [FLUOROMETHOLONE] | D(1A) dopamine receptor (Homo sapiens) | > 10 µM
C[C@H](CS)C(=O)N1CCC[C@H]1C(=O)O [CAPTOPRIL] | D(1A) dopamine receptor (Homo sapiens) | > 30 µM
COc1cc2c(cc1OC)C1CC(=O)C(CC(C)C)CN1CC2 (stereo not drawn) [TETRABENAZINE] | D(1A) dopamine receptor (Homo sapiens) | > 30 µM

In: Give D(1A) dopamine receptor (Homo sapiens) AC50 for the following molecule: C[C@]12CCC(=O)C=C1C=C[C@@H]1[C@@H]2CC[C@@]2(C)[C@H]1CC[C@@]21CCC(=O)O1 [CANRENONE]
Out: > 30 µM

In: Give D(1A) dopamine receptor (Homo sapiens) AC50 for the following molecule: Nc1nnc(-c2cccc(Cl)c2Cl)c(N)n1 [LAMOTRIGINE]
Out: > 30 µM

In: Give D(1A) dopamine receptor (Homo sapiens) AC50 for the following molecule: CCN(C(C)=O)c1cccc(-c2ccnc3c(C#N)cnn23)c1 [ZALEPLON]
Out: > 10 µM

In: Give D(1A) dopamine receptor (Homo sapiens) AC50 for the following molecule: Nc1c2c(nc3ccccc13)CCCC2O (stereo not drawn) [VELNACRINE]
Out: > 30 µM
